target: SARS-CoV-2 prefusion stabilized trimer protein (WIV02 isolate spike protein) (UniProt P0DTC2 14-1213); experiment: ELISA
Would you kindly list pEC50 for each of these binders?
# log scale: pEC50 equals minus log10 of the concentration in mol/L

Item: 4-C3-A (antibody, V domains shown) VH: EVQLQQSGPELVKPGASVKISCKASGYSFTGYYMHWVKQSHGNILDWIGYIYPYNGVSSYNQKFKGKATLTVDKSSSTAYMELRSLTSEASAVYYCARAYGSSYDYYYGLDYWGQGTSVTVSS VL: DIVLTQSPASLAVSLGQRATISCKASQSVDYDGAGYMNWYQQKPGQPPKLLISSASNLQSGIPARFSGSGSGTDFTLNIHPVEEEDAATYYCQQSNDDPYTFGGGTKLEIK | pEC50: 10.10

Item: 2-P2-A (antibody, V domains shown) VH: EVQLQQSGAELVRPGSSVKMSCKTSGYTFTSYGINWVKQRPGQGLEWIGYIYIGNGYTEYNEKFKGKATLTSDTSSSTAYMQLSSLTSEDSAIYFCARGGVDYWGQGTTLTVSS VL: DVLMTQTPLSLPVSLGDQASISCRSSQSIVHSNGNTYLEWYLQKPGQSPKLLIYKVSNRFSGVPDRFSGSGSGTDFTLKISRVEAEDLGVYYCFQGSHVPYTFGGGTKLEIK | pEC50: 9.92

Item: 5-H22-A (antibody, V domains shown) VH: QVQLQQSGAELVRPGASVTLSCKASGYTFTDYEMHWMKQTPVHGLEWIGAIDLETGGTVYNQKFKGKAILTADKSSNTAYMALRSLTSEDSAVYYCTREFPHYYGSRYGFPYWGQGTLVTVSA VL: QIVLTQSPAIMSASPGEKVTITCSASSSVSYMHWLQQKPGTSPKLWIYSTSNLASGVPARFSGSGSGTSYSLTISRMEAEDAATYYCQQRSSYPYTFGGGTKLEIK | pEC50: 7.73
